Every entry's value here was drawn from PubChem BioAssay AID2060896.

System: 941728-121-R-J1-PDC complex spheroid viability
Procedure summary: Anticancer human tumor 941728-121-R-J1-PDC patient-derived lung adenocarcinoma cell line growth inhibition [RAS]
Experimental parameters: second compound 0.316 µM; first compound 0.000949 µM; stronger effect = lower value
Endpoint label: viability, T/C (%)
Output spec: scalar in %, unitless text.

Use these answered entries as a reference point.
CC1(C)CCC(Nc2ncc(C(F)(F)F)c(-c3c[nH]c4c(P(C)(C)=O)c(C#N)ccc34)n2)CN1 (centres undefined) + C=CC(=O)N1CCN(c2nc(OCC3CCCN3C)nc3c(F)c(-c4nc(N)cc(C)c4C(F)(F)F)c(Cl)cc23)C(C)C1; 15.3
CCc1c2c(nc3ccc(O)cc13)-c1cc3c(c(=O)n1C2)COC(=O)[C@]3(O)CC + C=CC(=O)N1CCN(c2nc(OCC3CCCN3C)nc3c(F)c(-c4nc(N)cc(C)c4C(F)(F)F)c(Cl)cc23)C(C)C1; 18.3
CC1(C)CCC(Nc2ncc(C(F)(F)F)c(-c3c[nH]c4c(P(C)(C)=O)c(C#N)ccc34)n2)CN1 (centres undefined) + C#Cc1c(F)ccc2cc(O)cc(-c3ncc4c(N5CC6CCC(C5)N6)nc(OCC56CCCN5CC(F)C6)nc4c3F)c12; 51.5

Note: attention shifts to another entry.
Summary: CCc1c2c(nc3ccc(O)cc13)-c1cc3c(c(=O)n1C2)COC(=O)[C@]3(O)CC + C#Cc1c(F)ccc2cc(O)cc(-c3ncc4c(N5CC6CCC(C5)N6)nc(OCC56CCCN5CC(F)C6)nc4c3F)c12 , 941728-121-R-J1-PDC complex spheroid viability, viability, T/C = 52.9

====

Test system: 941728-121-R-J1-PDC complex spheroid viability
Procedure summary: Anticancer human tumor 941728-121-R-J1-PDC cell line growth inhibition [RAS];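 further: spheroids exposed to compounds for 7 days before readout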
Experimental parameters: curve of first compound; second compound 0.00949 µM
Endpoint label: IC50

Field: example entries. Status: answers known.
CCc1c2c(nc3ccc(O)cc13)-c1cc3c(c(=O)n1C2)COC(=O)[C@]3(O)CC + CCn1c(-c2cc(N3CCN(C)CC3)cnc2C(C)OC)c2c3cc(ccc31)-c1csc(n1)CC(NC(=O)C1CC1C)C(=O)N1CCCC(N1)C(=O)OCC(C)(C)C2; < 0.949 nM
Nc1ccn(C2OC(CO)C(O)C2(F)F)c(=O)n1 (centres undefined) + CCn1c(-c2cccnc2C(C)OC)c2c3cc(ccc31)N1CCOC(CC(NC(=O)C(C(C)C)N(C)C(=O)C3(F)CCN(C(=O)C#CC(C)(C)N(C)C)CC3)C(=O)N3CCCC(N3)C(=O)OCC(C)(C)C2)C1; < 3.16 nM
CCC(CC)c1cc(NC2CCC(N)C2)n2nccc2n1 (centres undefined) + CCn1c(-c2cccnc2C(C)OC)c2c3cc(ccc31)N1CCOC(CC(NC(=O)C(C(C)C)N(C)C(=O)C3(F)CCN(C(=O)C#CC(C)(C)N(C)C)CC3)C(=O)N3CCCC(N3)C(=O)OCC(C)(C)C2)C1; < 31.6 nM
C=CC(=O)Nc1cc(Nc2nccc(-c3cn(C)c4ccccc34)n2)c(OC)cc1N(C)CCN(C)C + CCn1c(-c2cccnc2C(C)OC)c2c3cc(ccc31)N1CCOC(CC(NC(=O)C(C(C)C)N(C)C(=O)C3(F)CCN(C(=O)C#CC(C)(C)N(C)C)CC3)C(=O)N3CCCC(N3)C(=O)OCC(C)(C)C2)C1; < 3.16 nM
CCC(CC)c1cc(NC2CCC(N)C2)n2nccc2n1 (centres undefined) + CCn1c(-c2cc(N3CCN(C)CC3)cnc2C(C)OC)c2c3cc(ccc31)-c1csc(n1)CC(NC(=O)C1CC1C)C(=O)N1CCCC(N1)C(=O)OCC(C)(C)C2; < 31.6 nM
CCN1CCN(Cc2ccc(Nc3ncc(F)c(-c4cc(F)c5nc(C)n(C(C)C)c5c4)n3)nc2)CC1 + CCn1c(-c2cc(N3CCN(C)CC3)cnc2C(C)OC)c2c3cc(ccc31)-c1csc(n1)CC(NC(=O)C1CC1C)C(=O)N1CCCC(N1)C(=O)OCC(C)(C)C2; < 3.16 nM
Cc1nc(N2CCC3(CC2)COC(C)C3N)c(CO)nc1Sc1ccnc(N)c1Cl (centres undefined) + CCn1c(-c2cccnc2C(C)OC)c2c3cc(ccc31)N1CCOC(CC(NC(=O)C(C(C)C)N(C)C(=O)C3(F)CCN(C(=O)C#CC(C)(C)N(C)C)CC3)C(=O)N3CCCC(N3)C(=O)OCC(C)(C)C2)C1; < 31.6 nM
C=CC(=O)Nc1cc(Nc2nccc(-c3cn(C)c4ccccc34)n2)c(OC)cc1N(C)CCN(C)C + CCn1c(-c2cc(N3CCN(C)CC3)cnc2C(C)OC)c2c3cc(ccc31)-c1csc(n1)CC(NC(=O)C1CC1C)C(=O)N1CCCC(N1)C(=O)OCC(C)(C)C2; < 3.16 nM

Recorded result, CC(Nc1ccc2c(c1)OCCn1cc(N3C(=O)OCC3C(F)F)nc1-2)C(N)=O (centres undefined) + CCn1c(-c2cccnc2C(C)OC)c2c3cc(ccc31)N1CCOC(CC(NC(=O)C(C(C)C)N(C)C(=O)C3(F)CCN(C(=O)C#CC(C)(C)N(C)C)CC3)C(=O)N3CCCC(N3)C(=O)OCC(C)(C)C2)C1 , IC50: < 31.6 nM
